FYI, the data here is from patent US7229986B2.

Structures can show the parent of a compound that is named as a salt.
// values below are reported melting point

Use these answered entries as a reference point.
Enquiry: Please report the recorded melting point for CN(C)C/C=C/c1ccc2c(c1)N(C(=O)c1ccc(-c3ccccc3)cc1)CCCC2 (as salt: hydrochloride) [Example 2] .
Return: 112 to 113 °C

Enquiry: If you can, please state the reported melting point value of CN(C)C/C=C/c1ccc2c(c1)CCN2C(=O)c1ccc(-c2ccccc2)cc1 [Example 7] .
Return: 174 to 176 °C

Enquiry: Report melting point for CN(C)C/C=C/c1ccc2c(c1)CCCN2C(=O)c1ccc(-c2ccc(Cl)cc2)cc1 [Example 5] please.
Return: 162 to 164 °C

Enquiry: GET /values?readout=melting point&item= CN(C)CCCc1ccc2c(c1)N(C(=O)c1ccc(-c3ccccc3)cc1)CCCC2 (as salt: hydrochloride) [Example 3]
Return: 84 to 86 °C

Enquiry: Param item = O=C(CCC(=O)N1CCC(c2ccc(Cl)cc2)CC1)c1ccc2c(c1)CCN(C(=O)C(F)(F)F)CC2 [Example 14] ; retrieve measured melting point.
Return: 131 to 132 °C

Enquiry: Quick one: melting point of CCCN(CCC)CCc1ccc2c(c1)N(Cc1cccc3ccccc13)CCO2.Cl ?
Return: 177 to 178 °C

Enquiry: So what does the record say about melting point for O=C(CCCC(=O)N1CCC(c2ccc(Cl)cc2)CC1)c1ccc2c(c1)CCNCC2 [Example 205] ?
Return: 112 to 113 °C

Enquiry: Dear colleague, I am looking for the recorded melting point of the following compound: CN1CCc2ccc(C(=O)CCC(=O)N3CCC(c4ccc(Cl)cc4)CC3)cc2CC1 [Example 16]
Return: 143 to 145 °C

Enquiry: Need melting point, item O=C(CCC(=O)N1CCC(c2ccc(Cl)cc2)CC1)c1ccc2c(c1)CCNCC2 [Example 15]
Return: 148 to 149 °C

Enquiry: Data request, read-out melting point, for O=C(c1ccc(-c2ccc(Cl)cc2)cc1)N1CCCc2cc(/C=C/CN3CCCCC3)ccc21 [Example 6]
Return: 141 to 143 °C

Next:
Enquiry: Which melting point reading was recorded for the compound O=C(CCCN1CCC(c2ccc(Cl)cc2)CC1)c1ccc2c(c1)CCNCC2 (as salt: HCl) [Example 34] ?
Return: 243 to 247 °C (dec.)

Enquiry: Which measured melting point value corresponds to O=C(CCC(=O)N1CCC(c2ccc(Cl)cc2)CC1)c1ccc2c(c1)CCN(C1CCCCC1)CC2 [Example 195] ?
Return: 128 to 130 °C

Enquiry: // returns reported melting point for input O=C(CCC(=O)N1CCC(c2ccccc2)CC1)c1ccc2c(c1)CCN(C(=O)C(F)(F)F)CC2 [Example 31]
Return: 132 to 133 °C

* * *

Catalogue of melting point readings, one per entry.
Counter-ions that a name gives are not always drawn.

Examples with their reported melting point follow.
Enquiry: Reported melting point, compound CCCN(CCC)C(=O)Cc1ccc2c(c1)NC(=O)CO2 : ____
Return: 121 to 122 °C

Enquiry: Quick one: melting point for CN1CCc2ccc(C(=O)CCCN3CCC(c4ccc(Cl)cc4)CC3)cc2CC1 (as salt: HCl) (hydrate or solvate) ?
Return: 248 to 252 °C (dec.)

Next:
Enquiry: Given the compound O=C(CCC(=O)N1CCC(c2ccc(Cl)cc2)CC1)c1ccc2c(c1)CCN(CC1CCCO1)CC2 (stereo not shown) , what is its reported melting point?
Return: 123 to 125 °C

Enquiry: Record request: melting point value, item COc1ccc(COc2ccc(C(=O)N3CCc4cc(/C=C/CN(C)C)ccc43)cc2)cc1
Return: 164 to 166 °C

* * *

Listed compounds paired with reported melting point
Counter-ions that a name gives are not always drawn.

Enquiry: Find the recorded melting point belonging to CN(C)CCCc1ccc2c(c1)CCCN2C(=O)c1ccc(-c2ccccc2)cc1 [Example 1] and report it.
Return: 100 to 101 °C

Enquiry: Query: melting point; subject: CCCN(CCC)CCc1ccc2c(c1)N(S(=O)(=O)c1ccc(Cl)cc1)CCO2 (as salt: succinate) [Example 137]
Return: 130 to 133 °C

Enquiry: Consider the compound shown here: O=C(CCC(=O)N1CCC(c2ccccc2)CC1)c1ccc2c(c1)CCNCC2 [Example 32] What is its recorded melting point?
Return: 114 °C
